- study.system: SMARCA2 (Homo sapiens, UniProt P51531)
- Sequence (P51531 whole entry): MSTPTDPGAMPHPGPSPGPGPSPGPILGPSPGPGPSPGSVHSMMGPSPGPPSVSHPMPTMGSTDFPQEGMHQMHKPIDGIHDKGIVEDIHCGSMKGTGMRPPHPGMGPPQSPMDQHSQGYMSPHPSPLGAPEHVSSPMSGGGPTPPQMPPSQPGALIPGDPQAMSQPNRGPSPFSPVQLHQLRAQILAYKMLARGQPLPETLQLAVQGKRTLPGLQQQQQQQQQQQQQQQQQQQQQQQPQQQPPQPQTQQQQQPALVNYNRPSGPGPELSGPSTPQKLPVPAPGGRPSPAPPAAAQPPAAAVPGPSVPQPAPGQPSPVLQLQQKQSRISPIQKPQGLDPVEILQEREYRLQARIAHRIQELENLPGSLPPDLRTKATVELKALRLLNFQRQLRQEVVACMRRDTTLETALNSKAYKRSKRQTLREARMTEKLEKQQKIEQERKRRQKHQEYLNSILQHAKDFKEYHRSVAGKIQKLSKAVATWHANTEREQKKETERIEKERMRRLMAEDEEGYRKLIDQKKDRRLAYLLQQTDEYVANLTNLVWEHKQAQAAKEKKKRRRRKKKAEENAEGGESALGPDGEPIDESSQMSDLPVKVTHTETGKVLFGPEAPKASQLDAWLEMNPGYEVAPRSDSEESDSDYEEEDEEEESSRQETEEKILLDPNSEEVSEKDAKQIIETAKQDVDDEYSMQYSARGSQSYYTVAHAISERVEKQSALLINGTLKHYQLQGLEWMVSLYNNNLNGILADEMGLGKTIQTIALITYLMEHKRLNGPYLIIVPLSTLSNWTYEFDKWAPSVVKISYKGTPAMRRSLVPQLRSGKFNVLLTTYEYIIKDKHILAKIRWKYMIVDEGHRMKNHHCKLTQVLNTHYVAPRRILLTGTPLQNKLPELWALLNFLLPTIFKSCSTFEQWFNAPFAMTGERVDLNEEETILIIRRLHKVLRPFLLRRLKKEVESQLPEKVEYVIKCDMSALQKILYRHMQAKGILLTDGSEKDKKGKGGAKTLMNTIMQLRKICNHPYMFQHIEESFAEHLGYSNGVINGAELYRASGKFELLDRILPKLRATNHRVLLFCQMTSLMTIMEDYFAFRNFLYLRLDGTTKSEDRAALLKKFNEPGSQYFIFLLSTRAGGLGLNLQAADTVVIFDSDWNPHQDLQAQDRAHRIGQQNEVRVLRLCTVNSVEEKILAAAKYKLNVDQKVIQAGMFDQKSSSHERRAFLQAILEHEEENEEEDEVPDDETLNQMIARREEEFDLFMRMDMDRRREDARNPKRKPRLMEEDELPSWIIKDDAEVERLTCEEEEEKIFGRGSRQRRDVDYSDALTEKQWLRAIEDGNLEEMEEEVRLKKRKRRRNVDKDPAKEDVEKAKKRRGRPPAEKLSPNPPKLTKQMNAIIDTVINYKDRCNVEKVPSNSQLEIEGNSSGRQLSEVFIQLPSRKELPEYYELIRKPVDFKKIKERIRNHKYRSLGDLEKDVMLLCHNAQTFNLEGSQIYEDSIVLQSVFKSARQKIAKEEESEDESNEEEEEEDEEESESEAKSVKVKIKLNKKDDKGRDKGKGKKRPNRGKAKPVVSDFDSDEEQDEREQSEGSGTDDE
- procedure.text: MSD SMARCA2 degradation in A549 cell line
- Type: cell-based
- stated.conditions: A549 cells, 24 h, read-out: SMARCA2 MSD A549 degradation 24 h: Average external-Abs DC50
- Experimental: Example 10. MSD SMARCA2 Degradation in A549 Cell Line Cells were seeded into 96-well plates (A549 cells: 2×10^4 cells/well/100 ul media) and incubated overnight. […] The MSD plate was washed three times with 150 uL/well of TBST and 150 ul/well of 2× MSD reading buffer diluted from 4× (MSD, R92TC-2) with water was added. Lastly, the MSD instrument was read. […]
Reported values of DC50 for individual entries

- compound: "Cc1ncsc1-c1ccc(CNC(=O)[C@@H]2C[C@@H](O)CN2C(=O)[C@@H](NC(=O)[C@H]2CC3(CC[C@H](N4CCN(c5cnc(N6CCc7[nH]c8nnc(-c9ccccc9O)cc8c7[C@H]6C)nc5)CC4)CC3)C2)C(C)(C)C)cc1 (single isomer, unassigned) [I-79]"
  DC50: "> 100 nM"
- compound: "C#Cc1ccc(CNC(=O)[C@@H]2C[C@@H](O)CN2C(=O)[C@@H](NC(=O)N2CC3(CC(N4CCC(c5cnc(N6CCc7[nH]c8nnc(-c9ccccc9O)cc8c7[C@H]6C)nc5)CC4)C3)C2)C(C)(C)CCO)cc1"
  DC50: "< 10 nM"
